Hello, the source for this data is ChEMBL document CHEMBL5154795, in case you need it.

Test: Cytotoxicity against human HaCaT cells assessed as cell viability upto 128 ug/ml incubated for 24 hrs by MTS assay relative to control
Format: toxicity, cell-based
Details: up to 128 µg/mL, read-out: Activity
Measured metric: viability at 24 h (%)

Record smiles	Measured metric	Readout number
C/C(=N\NC(=N)N)c1ccc(NC(=O)Nc2ccc(-c3cccs3)cc2)cc1	viability at 24 h	100

* * *

Assay: Hemolytic activity in rabbit erythrocytes at 64 ug/ml incubated for 30 min by absorbance based analysis relative to control
Format: toxicity, cell-based, Oryctolagus cuniculus, Erythrocyte
Conditions: at 64 µg/mL, read-out: Activity
Measured metric: hemolysis at 0.5 h, 64 ug/ml (%)

Record smiles	Value unit	Readout number
C/C(=N\NC(=N)N)c1ccc(NC(=O)Nc2ccc(/C=C/CC(C)C)cc2)cc1	%	50
